target: Vasopressin V1a receptor (Homo sapiens, UniProt P37288); format: cell membranes, Membrane; details: hek293; also: in other assays of this panel Not Active means under 50% inhibition at 10 µM
Sequence (P37288 whole entry): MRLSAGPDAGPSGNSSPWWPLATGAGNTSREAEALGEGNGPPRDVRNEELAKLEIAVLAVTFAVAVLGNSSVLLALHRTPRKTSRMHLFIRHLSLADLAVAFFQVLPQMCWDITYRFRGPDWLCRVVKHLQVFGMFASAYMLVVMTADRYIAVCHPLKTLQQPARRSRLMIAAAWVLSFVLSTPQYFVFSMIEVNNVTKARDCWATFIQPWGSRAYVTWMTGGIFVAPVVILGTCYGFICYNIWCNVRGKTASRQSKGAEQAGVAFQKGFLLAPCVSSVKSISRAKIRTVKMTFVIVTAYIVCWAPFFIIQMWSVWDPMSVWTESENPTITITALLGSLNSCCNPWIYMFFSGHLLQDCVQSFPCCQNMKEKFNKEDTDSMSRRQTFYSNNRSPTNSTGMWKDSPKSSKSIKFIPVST
Property Name: IC50

Known results for compounds:
Compound	IC50
COc1ccc2c3c1O[C@H]1C[C@@H](O)C=C[C@@]31CCN(C)C2	Not Active
CCN(CC)CCNC(=O)c1cc(S(C)(=O)=O)ccc1OC [TIAPRIDE]	Not Active
COc1ccc2[nH]cc(CCNC(C)=O)c2c1	Not Active
Nc1cc(N2CCCCC2)nc(N)[n+]1[O-]	Not Active
C[C@H]1O[C@@H](n2cc(F)c(=O)[nH]c2=O)[C@H](O)[C@@H]1O	Not Active
CCN(CC)CCOc1ccc(/C(=C(/Cl)c2ccccc2)c2ccccc2)cc1	Not Active

query: What does the data say about its IC50? Entry: C[C@@H]1O[C@@H](O[C@@H]2C=C3CC[C@@H]4[C@H](CC[C@]5(C)[C@@H](c6ccc(=O)oc6)CC[C@]45O)[C@@]3(C)CC2)[C@H](O)[C@H](O)[C@H]1O
result: Not Active

query: Entry O=C(O)c1cn(-c2ccc(F)cc2)c2cc(N3CCNCC3)c(F)cc2c1=O please
result: Not Active

query: Continue with C[n+]1ccc(-c2cc[n+](C)cc2)cc1.[Cl-].[Cl-] [PARAQUAT DICHLORIDE]
result: Not Active

query: Queued: Cc1cccc(C)c1OCC(C)N (centres undefined)
result: Not Active

====

biological target: UniProtKB P41597; type: cell membranes, Membrane; conditions: cho-k1
Sequence (P41597 whole entry): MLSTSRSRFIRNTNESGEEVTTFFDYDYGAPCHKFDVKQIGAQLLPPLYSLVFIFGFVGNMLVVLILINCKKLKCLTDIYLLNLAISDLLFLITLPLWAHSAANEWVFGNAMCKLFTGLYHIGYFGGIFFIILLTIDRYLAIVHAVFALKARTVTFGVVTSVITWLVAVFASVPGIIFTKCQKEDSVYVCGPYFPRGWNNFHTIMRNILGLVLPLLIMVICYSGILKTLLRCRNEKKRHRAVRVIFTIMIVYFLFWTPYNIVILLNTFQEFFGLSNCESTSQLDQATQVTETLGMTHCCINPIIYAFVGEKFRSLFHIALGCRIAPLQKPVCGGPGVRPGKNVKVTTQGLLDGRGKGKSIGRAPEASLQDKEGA
Property Name: IC50

Examples with answers:
Compound	Test Target	IC50
O=C(c1ccccc1C(F)(F)F)N1CCC(Cc2ccccc2)CC1	UniProtKB P41597	Not Active
O=C(O)c1cn(-c2ccc(F)cc2)c2cc(N3CCNCC3)c(F)cc2c1=O	UniProtKB P41597	Not Active
CC(C)NNC(=O)c1ccncc1	UniProtKB P41597	Not Active
O=c1cc(N2CCOCC2)oc2c(-c3ccccc3)cccc12	UniProtKB P41597	Not Active
C[n+]1ccccc1/C=N/O.[Cl-] [PRALIDOXIME CHLORIDE]	UniProtKB P41597	Not Active
C#CC1(O)CC[C@H]2[C@@H]3CCC4=CC(=O)CC[C@@H]4[C@H]3CC[C@@]21CC (some centres undefined)	UniProtKB P41597	Not Active
Oc1cccc(O)c1O	UniProtKB P41597	Not Active
CN(C)CCOC(c1ccccc1)c1ccccc1 [DIPHENHYDRAMINE]	UniProtKB P41597	Not Active

Now for the compound whose IC50 we want.
query: So what does the record say about IC50 for C[C@@H]1C[C@H]2[C@@H]3CCC4=CC(=O)C=C[C@]4(C)[C@@]3(F)[C@@H](O)C[C@]2(C)[C@H]1C(=O)CO ?
result: Not Active

====

molecular target: Caspase-1 (Homo sapiens, UniProt P29466); design: species or system Escherichia coli; also: in other assays of this panel Not Active means under 50% inhibition at 10 µM
Sequence (P29466 120-297 limits assumed): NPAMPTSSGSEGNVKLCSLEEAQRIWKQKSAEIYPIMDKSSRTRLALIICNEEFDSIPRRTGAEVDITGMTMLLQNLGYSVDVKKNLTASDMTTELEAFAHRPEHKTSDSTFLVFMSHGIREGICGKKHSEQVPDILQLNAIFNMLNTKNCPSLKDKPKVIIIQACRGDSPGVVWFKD
Sequence (P29466 317-404 limits assumed): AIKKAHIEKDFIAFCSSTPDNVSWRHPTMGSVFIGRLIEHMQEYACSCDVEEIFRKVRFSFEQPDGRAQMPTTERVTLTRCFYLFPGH
Property Name: Ki

Past entries and their recorded results:
Substance	Ki
GRAMICIDIN	Not Active
SODIUM ORTHOVANAD	Not Active
NYSTATIN	Not Active
AURANOFIN	Not Active
MANGANESE CHLORIDE ANHYDROUS	Not Active
GENTAMICIN	Not Active

Consider the additional substance presented here.
query: Give the reported Ki for GADOPENTETATE DIMEGLUMINE (system: Caspase-1 (Homo sapiens, UniProt P29466)).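 Also: Caspase-1 enzyme inhibition assay with a peptide substrate.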 Also: in other assays of this panel Not Active means under 50% inhibition at 10 µM.
result: Not Active

// data source = ChEMBL document CHEMBL1909046
